Assay: small-molecule microarray binders of probe aEGFR, primary screen, biochemical, biotinylated probe, 635/667 nm fluorescence (AID 1097);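 also: probe is a biotinylated anti-EGFR antibody binding compounds printed on slides; score combines fluorescence near 667 nm and signal to noise of each spot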
Conditions: higher = more signal
We'd kindly ask you to apply these composite z-score classes: interval 1 = under -0.08, interval 2 = from -0.08 up to -0.02, interval 3 = -0.02 and over

# count of solved cases: 10
Compound	Label
COc1ccc(C#Cc2ccc3c(c2)[C@]2(C(=O)N3)[C@H](C(=O)N3CCCCCCC3)[C@H]3C(=O)O[C@H](c4ccccc4)[C@H](c4ccccc4)N3[C@@H]2c2ccc(O)cc2)cc1	interval 3
COc1cccc(/C=C(\C#N)C(=O)Nc2c(C)n(C)n(-c3ccccc3)c2=O)c1	interval 1
CO[C@H]1O[C@H](CO)[C@@H](OC(=O)Nc2ccc(C#N)cc2)[C@@H]2OC(=O)[C@H](Cc3cccc(Br)c3)C/C=C/C[C@@H](Cc3cccc(Br)c3)C(=O)O[C@@H]12	interval 3
O=C(N1CCOCC1)[C@@]1(CCS(=O)(=O)c2ccccc2)N=C(c2ccc(OCCCO)cc2)O[C@H]1c1ccccc1	interval 3
O=C1NC(=O)C2C1C=CC(C(O)c1ccccn1)N2Nc1ccc(Cl)cc1Cl (stereo not drawn)	interval 2
COCCOC(=O)N1C(=O)[C@@]2(c3cc(C#CCC(C(=O)OC)C(=O)OC)ccc31)[C@H](C(=O)NC[C@H](O)c1ccccc1)[C@H]1C(=O)O[C@H](c3ccccc3)[C@H](c3ccccc3)N1[C@@H]2c1ccc(O)cc1	interval 1
O=C1C2C=CC(C(O)c3cccc(O)c3)N(Nc3ccccc3)C2C(=O)N1c1ccccc1 (stereo not drawn)	interval 2
O=C1OCCC/C=C\[C@H]2OC34C=CCN(c5ccc6ccccc6c5)C(=O)[C@H]3N(CCCO)C(=O)[C@@H]4C12 (stereo partly drawn)	interval 1
COC(=O)C1=CC(CCCO)=CC(c2ccc(CN3CCCC3)cc2)N(Cc2cc3c(cc2Br)OCO3)C=C1C(=O)OC (stereo not drawn)	interval 3
CC(C)OC(=O)CC(=O)CC(O)c1ccc([N+](=O)[O-])cc1 (stereo not drawn)	interval 1

Input "CN(C)C(=O)[C@@]1(CCC(=O)OC(C)(C)C)N=C(c2ccc(OCCCO)cc2)O[C@H]1c1ccccc1CN=[N+]=[N-]" ; output its category
interval 2

Same read-out for CCCCCCCCCCC(O)C1C=CC2C(=O)N(c3ccccc3)C(=O)C2N1Nc1ccccc1F (stereo not drawn) ?
interval 2

# repeat for CN1C=C(C(=O)OCCS(C)(=O)=O)C(C(=O)OCCS(C)(=O)=O)=CC(c2ccc(CO)cc2)=CC1c1cccs1 (stereo not drawn)
interval 2

Then COc1cc(NN2C(C(O)C3CCCCC3)C=CC3C(=O)N(c4ccccc4)C(=O)C32)cc(OC)c1OC (stereo not drawn) ?
interval 3

Another compound to check: "COCCOC(=O)N1C(=O)[C@@]2(c3cc(C#CC4(O)CCCCCC4)ccc31)[C@H](C(=O)N1CCN(c3ncccn3)CC1)[C@H]1C(=O)O[C@H](c3ccccc3)[C@H](c3ccccc3)N1[C@@H]2c1ccccc1OCCO"
interval 3

What about this compound? "COCCOC(=O)N1C(=O)[C@@]2(c3cc(C#CC4(O)CCCCCC4)ccc31)[C@H](c1ccc(OCCO)cc1)N1[C@H](c3ccccc3)[C@H](c3ccccc3)OC(=O)[C@H]1[C@@H]2C(=O)Nc1nc2ccccc2s1"
interval 3

Queued: "COCCOC(=O)N1C(=O)[C@@]2(c3cc(C#Cc4ccc(OC)cc4)ccc31)[C@H](c1ccc(OCCO)cc1)N1[C@H](c3ccccc3)[C@H](c3ccccc3)OC(=O)[C@H]1[C@@H]2C(=O)Nc1nc2ccccc2s1"
interval 2

Same question for "C=C[C@@H](OC)[C@H](OC(=O)Nc1ccc(SC)cc1)c1ccc(OCCO)cc1" please.
interval 2

Next up: "Cc1ccc([C@H]2C(C(=O)O)=C[C@@H](C(C)(C)C)N2S(=O)(=O)c2ccc(C)cc2)cc1"
interval 3

Next record, please: "COCCOC(=O)N1C(=O)[C@@]2(c3cc(C#CCNC(N)=O)ccc31)[C@H](c1ccc(O)cc1)N1[C@H](c3ccccc3)[C@H](c3ccccc3)OC(=O)[C@H]1[C@@H]2C(N)=O"
interval 1

Input "Cc1nc2cc(Br)ccc2c(=O)n1Cc1cccc(O)c1"
interval 2

// next record "COc1ccc(C(=O)Nc2cccc(CN3C(=O)[C@@]4(O[C@@H](CC(=O)N(CCO)Cc5ccccc5)[C@H]([Si](C)(C)c5ccc(OC)cc5)[C@H]4C)c4ccccc43)c2)cc1"
interval 1

Now give it for "O=C1[C@@]23C=C(Br)[C@H](C[C@@H]2COC3)[C@@]12CO2" too.
interval 1

Entry to check: "O=C1[C@@H]2[C@@H](CC(COc3ccccc3)=C3[C@@H](CCc4ccccc4)OB(O)C[C@@H]32)C(=O)N1Cc1ccccc1"
interval 1

Query "C[C@]1(C(=O)NCCN2CCOCC2)c2ccccc2C(=O)N(Cc2cc(F)cc(C(F)(F)F)c2)[C@H]1c1ccc(CO)cc1" next
interval 1

What would you report for "CCOC(=O)C[C@H]1[C@H](OC(=O)c2ccc(-c3ccccc3)cc2)[C@@H](NC(=O)CC(C)C)c2cc(OCCCO)ccc2N1C(=O)c1ccccc1" ?
interval 3

Request: "CC(C)(C)OC(=O)CC[C@]12N=C(c3ccc(OCCCO)cc3)O[C@H]1c1ccccc1N(Cc1ccccc1)C2=O"
interval 1

And the next one, "C=C[C@H](C)[C@H](OC(=O)Nc1ccc(OC)cc1)c1ccc(OCCO)cc1" ?
interval 1
